# assayTarget: human IL-17AA (Homo sapiens, UniProt Q16552)
# experimentDescription: IL-8 release assay in human epithelial keratinocytes adult (HEKa)
# testParameters: 3 ng/ml human IL-17AA + 10 ng/ml human TNFalpha, 68-72 h, IL-8 by HTRF, read-out: Rel EC50 L-8 release assay
metric: EC50

Below, each entry is followed by its recorded EC50 result.
1. Cn1cnnc1-c1ccc(NC(=O)C(Cc2cc(-c3cccc(OC(F)(F)F)c3)ccc2Cl)NC(=O)c2ccnn2C)cc1 (stereo not drawn) | 100 to 1000 nM
2. Cc1n[nH]c(C)c1-c1ccc(NC(=O)[C@@H](NC(=O)c2ccnn2C)[C@@H]2CCCc3ccc(-c4cnn(C5CC5)c4)cc32)cc1 | < 100 nM
3. Cc1ncn(C)c1-c1ccc(NC(=O)[C@H](Cc2cc(-c3cccc(C(C)(C)N)c3)ccc2Cl)NC(=O)c2ccnn2C)cc1 | 100 to 1000 nM
4. Cc1cnn(C)c1-c1ccc(NC(=O)[C@@H](NC(=O)C2(F)CC2)[C@@H]2CCc3ccc(-c4cnnc(C5CC5)c4)cc32)cc1 | 100 to 1000 nM
5. CC(C)n1cc(-c2ccc(Cl)c(C[C@H](NC(=O)CC3CC3)C(=O)Nc3ccc(-c4nncn4C)cc3)c2)ccc1=O | > 1000 nM

Tell us which EC50 value is on record for Cc1n[nH]c(C)c1-c1ccc(NC(=O)[C@@H](NC(=O)c2ccnn2C)[C@@H]2CCc3ccc(-n4cnc(C(C)C)c4)cc32)cc1
100 to 1000 nM

====

# assayTarget: human IL-17AA (Homo sapiens)
# experimentDescription: IL-8 release assay in human epithelial keratinocytes adult (HEKa)
# testParameters: 3 ng/ml human IL-17AA + 10 ng/ml human TNFalpha, 68-72 h, IL-8 by HTRF, read-out: Rel EC50 L-8 release assay
pEC50: −log10 of the molar value.
metric: pEC50

Some compounds with recorded pEC50:
1) Cn1cncc1-c1ccc(NC(=O)[C@@H](NC(=O)C2(F)CC2)[C@@H]2CCCc3ccc(-c4ccnc(N5C[C@H]6C[C@@H]5CO6)c4)cc32)cc1O | < 6.00
2) CCc1cccc(-c2ccc(Cl)c(CC(NC(=O)c3ccnn3C)C(=O)Nc3ccc(-c4nncn4C)cc3)c2)c1 (stereo not shown) | 6.00 to 7.00
3) Cn1cncc1-c1ccc(NC(=O)C(Cc2cc(-c3ccnc(OCC(F)(F)F)c3)ccc2Cl)NC(=O)c2ccnn2C)cc1 (stereo not shown) | 6.00 to 7.00

Look at each compound and report its pEC50.
1. Cc1nccn1-c1ccc(NC(=O)C(Cc2cc(-c3ccc(=O)n(C(C)C)c3)ccc2Cl)NC(=O)c2ccnn2C)cc1 (stereo not shown)
2. Cc1n[nH]c(C)c1-c1ccc(NC(=O)[C@@H](NC(=O)c2ccnn2C)[C@@H]2CCc3ccc(-c4ccc5c(c4)CNC5)cc32)cc1

< 6.00
> 7.00

====

# assayTarget: human IL-17AA (Homo sapiens, UniProt Q16552)
# experimentDescription: IL-8 release assay in human epithelial keratinocytes adult (HEKa)
# testParameters: 3 ng/ml human IL-17AA + 10 ng/ml human TNFalpha, 68-72 h, IL-8 by HTRF, read-out: Rel EC50 L-8 release assay
Hi there, I'd appreciate the recorded EC50 for every entry that follows.

Study these solved cases before continuing.
1) CCCCn1cc(-c2ccc(Cl)c(C[C@H](NC(=O)c3ccnn3C)C(=O)Nc3ccc(-c4cncn4C)cc3)c2)cn1 | 0.1 to 1 µM
2) Cc1ncn(C)c1-c1ccc(NC(=O)[C@H](Cc2cc(-c3cnn(C(C)(C)C)c3)ccc2Cl)NC(=O)c2ccnn2C)cc1 | < 0.1 µM
3) CC(c1cc(-c2ccc(=O)n(C(C)C)c2)ccc1Cl)[C@H](NC(=O)OC1CC1)C(=O)Nc1ccc(-c2cncn2C)cc1 (stereo partly drawn) | 0.1 to 1 µM
4) Cc1cnn(C)c1-c1ccc(NC(=O)[C@H](Cc2cc(-c3ccc(=O)n(C(C)C)c3)ccc2Cl)NC(=O)c2cnco2)cc1 | > 1 µM
5) CC(C)c1cc(-c2ccc(Cl)c(C[C@H](NC(=O)c3ccnn3C)C(=O)Nc3ccc(-c4cncn4C)cc3)c2)ncn1 | 0.1 to 1 µM

Note down EC50 recorded for COCOc1ccc(-c2ccc(Cl)c(CC(NC(=O)c3ccnn3C)C(=O)Nc3ccc(-c4nncn4C)cc3)c2)cc1C(=O)N1CCC1 (stereo not drawn)
> 1 µM

====

# assayTarget: UniProt Q16552
# experimentDescription: IL-8 release assay in human epithelial keratinocytes adult (HEKa)
# testParameters: 3 ng/ml human IL-17AA + 10 ng/ml human TNFalpha, 68-72 h, IL-8 by HTRF, read-out: Rel EC50 L-8 release assay
metric: EC50

Below, each entry is followed by its recorded EC50 result.
1. Cc1n[nH]c(C)c1-c1ccc(NC(=O)[C@@H](NC(=O)C2(F)CC2)[C@@H]2CCc3ccc(-c4cc(C5CC5)cnn4)cc32)cc1 [Example 384] | 0.1 to 1 µM
2. CC(C)n1cc(-c2ccc(Cl)c(C[C@H](NC(=O)OC3CC3)C(=O)Nc3ccc(-c4nncn4C)cc3)c2)ccc1=O [Example 131] | 0.1 to 1 µM
3. Cc1cnn(C)c1-c1ccc(NC(=O)[C@H](Cc2cc(-c3ccc(=O)n(C(C)C)c3)ccc2Cl)NC(=O)c2ccon2)cc1 [Example 337] | 0.1 to 1 µM
4. Cc1n[nH]c(C)c1-c1ccc(NC(=O)[C@H](Cc2cc(-c3cnn(C(C)(C)C)c3)ccc2Cl)NC(=O)c2ccnn2C)cc1 [Example 200] | < 0.1 µM
5. Cc1nccn1-c1ccc(NC(=O)[C@@H](NC(=O)c2ccnn2C)[C@@H]2CCCc3ccc(-c4ccnc(N5C[C@H]6C[C@@H]5CO6)c4)cc32)cc1 [Example 403] | 0.1 to 1 µM

Hi there! I need EC50 for each item below, if you can.
1. CC(C)n1cc(-c2ccc(Cl)c(C[C@H](NC(=O)C3(C(F)(F)F)CC3)C(=O)Nc3ccc(-c4nncn4C)cc3)c2)ccc1=O [Example 117]
2. Cc1cnn(C)c1-c1ccc(NC(=O)[C@@H](NC(=O)C2(F)CC2)[C@@H]2CCc3ccc(-c4cncc(N5C[C@@H]6C[C@H]5CO6)n4)cc32)cc1 [Example 379]
3. Cn1cncc1-c1ccc(NC(=O)C(Cc2cc(-c3ccnc(N4CC(O)C4)c3)ccc2Cl)NC(=O)c2ccnn2C)cc1 (stereo not drawn) [Example 193]
4. Cc1n[nH]c(C)c1-c1ccc(NC(=O)[C@@H](NC(=O)C2(F)CC2)[C@@H]2CCc3ccc(-c4cncc(N5C[C@@H]6C[C@H]5CO6)c4)cc32)cc1 [Example 377]
5. CN1CCOC[C@H]1c1cccc(-c2ccc(Cl)c(C[C@H](NC(=O)c3ccnn3C)C(=O)Nc3ccc(-c4cncn4C)cc3)c2)c1 [Example 218]

> 1 µM
< 0.1 µM
0.1 to 1 µM
< 0.1 µM
0.1 to 1 µM

Parameter requested: EC50. Apply to each item below.
1. Cc1cnn(C)c1-c1ccc(NC(=O)[C@@H](NC(=O)C2(F)CC2)[C@@H](c2cccc(-c3cncc(N4C[C@@H]5C[C@H]4CO5)n3)c2)C2CC2)cc1 [Example 350]
2. Cc1n[nH]c(C)c1-c1ccc(NC(=O)[C@H](Cc2cc(-c3ccc(CN4C[C@@H]5C[C@H]4CN5)cc3)ccc2Cl)NC(=O)C2(F)CC2)cc1 [Example 229]

1. < 0.1 µM
2. 0.1 to 1 µM

====

# assayTarget: UniProt:Q16552
# Sequence (Q16552 24-155) 1: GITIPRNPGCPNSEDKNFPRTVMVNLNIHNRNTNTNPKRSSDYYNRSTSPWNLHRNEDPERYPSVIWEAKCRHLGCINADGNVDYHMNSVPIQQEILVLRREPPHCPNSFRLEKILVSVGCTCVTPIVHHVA
# Sequence (Q16552 24-155) 2: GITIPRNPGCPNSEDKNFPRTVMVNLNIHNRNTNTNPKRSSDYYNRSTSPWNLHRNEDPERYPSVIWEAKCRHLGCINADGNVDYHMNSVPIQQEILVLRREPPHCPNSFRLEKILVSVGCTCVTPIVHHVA
# experimentDescription: IL-8 release assay in human epithelial keratinocytes adult (HEKa)
# testParameters: 3 ng/ml human IL-17AA + 10 ng/ml human TNFalpha, 68-72 h, IL-8 by HTRF, read-out: Rel EC50 L-8 release assay
pEC50: −log10 of the molar value.
I'd appreciate it if you could supply pEC50 values for the items below.

1. CC(C)n1cc(-c2ccc(Cl)c(C[C@H](NC(=O)C3(F)CC3)C(=O)Nc3ccc(-c4cncn4C)c(O)c3)c2)ccc1=O [Example 133] | 6.00 to 7.00
2. Cc1n[nH]c(C)c1-c1ccc(NC(=O)[C@@H](NC(=O)c2ccnn2C)[C@@H]2CCc3ccc(-c4ccc5c(c4)CCNC5)cc32)cc1 [Example 17] | > 7.00
3. CC(C)n1cc(-c2ccc(Cl)c(C[C@H](NC(=O)C3(F)CCC3)C(=O)Nc3ccc(-c4nncn4C)cc3)c2)ccc1=O [Example 148] | < 6.00
4. Cn1cncc1-c1ccc(NC(=O)C(Cc2cc(-c3ccnc(N4CCC4CO)c3)ccc2Cl)NC(=O)c2ccnn2C)cc1 (stereo not drawn) [Example 187] | 6.00 to 7.00
5. CC(C)n1cc(-c2ccc(Cl)c(CC(NC(=O)OC(C)(C)C)C(=O)Nc3ccc(-c4cncn4C)c(Cl)c3)c2)ccc1=O (stereo not drawn) [Example 101] | < 6.00

For each listed entry, give its pEC50.
1. Cc1ncn(C)c1-c1ccc(NC(=O)[C@@H](NC(=O)C2(F)CC2)[C@@H]2CCCc3ccc(-c4ccnc(N5C[C@H]6C[C@@H]5CN6)c4)cc32)cc1 [Example 389]
2. Cc1n[nH]c(C)c1-c1ccc(NC(=O)[C@@H](NC(=O)c2ccnn2C)[C@@H]2CCCc3ccc(-c4cnn(C(C)(C)C)c4)cc32)cc1 [Example 34]
3. CC(C)n1cc(-c2ccc3c(c2)[C@@H]([C@@H](NC(=O)OC(C)(C)C)C(=O)Nc2ccc(-c4cncn4C)cc2)CCC3)ccc1=O [Example 45]
4. Cc1n[nH]c(C)c1-c1ccc(NC(=O)[C@H](Cc2cc(-c3cccc(C(C)(C)N)c3)ccc2Cl)NC(=O)c2ccnn2C)cc1 [Example 59]
5. Cc1n[nH]c(C)c1-c1ccc(NC(=O)[C@@H](NC(=O)C2(F)CC2)[C@@H]2CCc3ccc(-c4cccc(N5C[C@@H]6C[C@H]5CN6)c4)cc32)cc1 [Example 373]
6. Cc1ncn(C)c1-c1ccc(NC(=O)[C@@H](NC(=O)c2ccnn2C)[C@@H]2CCCc3ccc(-c4cccc(C(C)(C)N)c4)cc32)cc1 [Example 50]
7. Cc1cnn(C)c1-c1ccc(NC(=O)[C@@H](NC(=O)C2(F)CC2)[C@@H]2CCCc3ccc(-c4ccnc(N5C[C@@H]6C[C@H]5CO6)c4)cc32)cc1 [Example 398]

6.00 to 7.00
> 7.00
6.00 to 7.00
> 7.00
> 7.00
6.00 to 7.00
> 7.00

Just for reference, patent US20220162191A1 is where these values come from.
